Catalogue of minimal effective dose values
System: Mus musculus
Assay: Anticonvulsant activity in ip dosed Swiss albino mouse assessed as reduction of maximal electroshock-induced seizure after 0.5 hrs
Type: functional
Conditions: read-out: MED
Express the result in mg/kg but write the number alone.

CCOC(=O)C1C(c2ccc[nH]2)NC(c2ccc[nH]2)C(C(=O)OCC)S1(=O)=O (centres undefined): 100

Continue with the next molecule.
INPUT: Can you look up minimal effective dose on Mus musculus for O=C1NC(=O)C(c2ccccc2)(c2ccccc2)N1 ?
OUTPUT: 30

* * *

Catalogue of molecules with associated minimal effective dose
Tested on: Mus musculus
Assay: Anticonvulsant activity in ip dosed Swiss albino mouse assessed as reduction of maximal electroshock-induced seizure after 0.5 hrs
Format: functional
Conditions: read-out: MED
Field format: number, assumed mg/kg, no unit text.

Consider the worked cases shown below.
CCOC(=O)C1C(c2cc3ccccc3nc2Cl)NC(c2cc3ccccc3nc2Cl)C(C(=O)OCC)S1(=O)=O (centres undefined): 30
CCOC(=O)C1C(c2cccs2)NC(c2cccs2)C(C(=O)OCC)S1(=O)=O (centres undefined): 100
CCOC(=O)C1C(c2ccc([N+](=O)[O-])cc2)NC(c2ccc([N+](=O)[O-])cc2)C(C(=O)OCC)S1(=O)=O (centres undefined): 30
CCOC(=O)C1C(c2cccc(Cl)c2)NC(c2cccc(Cl)c2)C(C(=O)OCC)S1(=O)=O (centres undefined): 100
CCOC(=O)C1C(c2ccc(C)cc2)NC(c2ccc(C)cc2)C(C(=O)OCC)S1(=O)=O (centres undefined): 30
CCOC(=O)C1C(c2ccccc2)NC(c2ccccc2)C(C(=O)OCC)S1(=O)=O (centres undefined): 30

INPUT: Bench note: what minimal effective dose did CCOC(=O)C1C(c2ccc3c(c2)OCO3)NC(c2ccc3c(c2)OCO3)C(C(=O)OCC)S1(=O)=O (centres undefined) show?
OUTPUT: 30

INPUT: Look up minimal effective dose: CCOC(=O)C1C(c2cccnc2)NC(c2cccnc2)C(C(=O)OCC)S1(=O)=O (centres undefined)
OUTPUT: 300

INPUT: Consider the molecule shown here: CCOC(=O)C1C(c2ccsc2)NC(c2ccsc2)C(C(=O)OCC)S1(=O)=O (centres undefined) What is its recorded minimal effective dose?
OUTPUT: 100

* * *

Assay: Neurotoxicity in ip dosed Swiss albino mouse assessed as inability of animal to maintain equilibrium on rod after 0.5 hrs by rotarod test
Format: toxicity, organism-based
Settings: Swiss albino, in vivo
MEASUREMENT_TYPE: TD50 at 0.5 h

CCOC(=O)C1C(c2ccccc2)NC(c2ccccc2)C(C(=O)OCC)S1(=O)=O (stereo not drawn): 131 mg/kg
CCOC(=O)C1C(c2cc3ccccc3nc2Cl)NC(c2cc3ccccc3nc2Cl)C(C(=O)OCC)S1(=O)=O (stereo not drawn): 128 mg/kg
CCOC(=O)C1C(c2ccc(C)cc2)NC(c2ccc(C)cc2)C(C(=O)OCC)S1(=O)=O (stereo not drawn): 227 mg/kg
CCOC(=O)C1C(c2cc3ccccc3[nH]2)NC(c2cc3ccccc3[nH]2)C(C(=O)OCC)S1(=O)=O (stereo not drawn): 119 mg/kg
CCOC(=O)C1C(c2ccc3c(c2)OCO3)NC(c2ccc3c(c2)OCO3)C(C(=O)OCC)S1(=O)=O (stereo not drawn): 248 mg/kg
CCC1(c2ccccc2)C(=O)NC(=O)NC1=O [PHENOBARBITAL]: 68.2 mg/kg

INPUT: Quick check: TD50 at 0.5 h of CCOC(=O)C1C(c2ccc([N+](=O)[O-])cc2)NC(c2ccc([N+](=O)[O-])cc2)C(C(=O)OCC)S1(=O)=O (stereo not drawn) ?
OUTPUT: 190 mg/kg

INPUT: Which value of TD50 at 0.5 h has been reported for CCOC(=O)C1C(c2ccc(Cl)cc2)NC(c2ccc(Cl)cc2)C(C(=O)OCC)S1(=O)=O (stereo not drawn) in the records?
OUTPUT: 289 mg/kg

* * *

Quick reference: Ratio TD50/ED50 of the listed items.
Tested on: Mus musculus
Experiment: Protective index, ratio of TD50 for ip dosed Swiss albino mouse assessed as inability of animal to maintain equilibrium on rod after 0.5 hrs by rotarod test to ED50 for Swiss albino mouse assessed as reduction of maximal electroshock-induced seizure
Format: functional
Give your answer as a number; write no unit.

CCOC(=O)C1C(c2ccc([N+](=O)[O-])cc2)NC(c2ccc([N+](=O)[O-])cc2)C(C(=O)OCC)S1(=O)=O (centres undefined): 16.7

INPUT: I have this molecule here, CCOC(=O)C1C(c2ccccc2)NC(c2ccccc2)C(C(=O)OCC)S1(=O)=O (centres undefined) , and I need its recorded Ratio TD50/ED50.
OUTPUT: 8.8

INPUT: Field request: Ratio TD50/ED50 | item: CCOC(=O)C1C(c2ccc(C)cc2)NC(c2ccc(C)cc2)C(C(=O)OCC)S1(=O)=O (centres undefined)
OUTPUT: 15.7

INPUT: Could you tell me which Ratio TD50/ED50 is on file for CCOC(=O)C1C(c2ccc3c(c2)OCO3)NC(c2ccc3c(c2)OCO3)C(C(=O)OCC)S1(=O)=O (centres undefined) ?
OUTPUT: 9

* * *

// reported minimal effective dose for each item listed
Test system: Mus musculus
Assay: Anticonvulsant activity in ip dosed Swiss albino mouse assessed as reduction of maximal electroshock-induced seizure after 0.5 hrs
Type: functional
Settings: read-out: MED
Report only the number, with the unit mg/kg understood.

Examples from the recorded data:
CCOC(=O)C1C(c2ccc(OC)cc2)NC(c2ccc(OC)cc2)C(C(=O)OCC)S1(=O)=O (configuration not stated): 100
CCOC(=O)C1C(c2ccc(Cl)cc2)NC(c2ccc(Cl)cc2)C(C(=O)OCC)S1(=O)=O (configuration not stated): 30
CCOC(=O)C1C(c2cc3ccccc3[nH]2)NC(c2cc3ccccc3[nH]2)C(C(=O)OCC)S1(=O)=O (configuration not stated): 30
CCOC(=O)C1C(c2ccccn2)NC(c2ccccn2)C(C(=O)OCC)S1(=O)=O (configuration not stated): 300
CCOC(=O)C1C(c2ccco2)NC(c2ccco2)C(C(=O)OCC)S1(=O)=O (configuration not stated): 300
CCOC(=O)C1C(c2ccccc2Cl)NC(c2ccccc2Cl)C(C(=O)OCC)S1(=O)=O (configuration not stated): 100

Kindly review the next compound as well.
INPUT: Can you look up minimal effective dose on Mus musculus for CCOC(=O)C1C(c2ccc(OC)c(OC)c2)NC(c2ccc(OC)c(OC)c2)C(C(=O)OCC)S1(=O)=O (configuration not stated) ?
OUTPUT: 100
